tested on: secondary alcohol dehydrogenase (SADH), cell-free soluble extract; experiment: oxidation of sec-alcohols by cell-free soluble extracts; type: biochemical, Methylosinus trichosporium OB3b (NRRL B-11,196); details: soluble crude extract; grown on methanol
EXPERIMENTAL_READOUT: Oxidation Rate, sec-alcohol to corresponding ketone (nmole/min/mg protein)
Number in nmole/min/mg protein, nothing else.

Solved cases (3 shown):
{"columns": ["COMPOUND", "SYSTEM_NAME", "UNIT_OF_MEASUREMENT", "REPORTED_MEASUREMENT"],
 "data": [
  ["CC(C)O", "secondary alcohol dehydrogenase (SADH), cell-free soluble extract", "nmole/min/mg protein", 2.0],
  ["CCCCC(C)O (stereo not shown)", "secondary alcohol dehydrogenase (SADH), cell-free soluble extract", "nmole/min/mg protein", 0],
  ["CCC(C)O (stereo not shown)", "secondary alcohol dehydrogenase (SADH), cell-free soluble extract", "nmole/min/mg protein", 2.4]
]}

Let us move to another entry and its Oxidation Rate, sec-alcohol to corresponding ketone.
Qu. Supply recorded Oxidation Rate, sec-alcohol to corresponding ketone for CCCC(C)O (stereo not shown) here.
Ans. 0.1

----------
test system: Kloeckera sp. Strain A2 (NRRLY-11,420); assay: sec-alcohols to ketones by cell suspensions of yeasts; format: cell-based; settings: Growth Substrate Methylamine
Conversion Rate, sec-alcohol to corresponding ketone for assorted molecules

Solved cases (3 shown):
{"columns": ["MOLECULE", "REPORTED_MEASUREMENT"],
 "data": [
  ["CCC(C)O (stereo not shown) [2-Butanol, 2-butanol]", "5.4 μmoles/hr/mg of protein"],
  ["CCCCC(C)O (stereo not shown) [2-Hexanol, 2-hexanol]", "0.10 μmoles/hr/mg of protein"],
  ["CCCC(C)O (stereo not shown) [2-Pentanol, 2-pentanol]", "1.0 μmoles/hr/mg of protein"]
]}

Let us move to another entry and its Conversion Rate, sec-alcohol to corresponding ketone.
Qu. Supply recorded Conversion Rate, sec-alcohol to corresponding ketone for CC(C)O [2-Propanol, 2-propanol] here.
Ans. 4.0 μmoles/hr/mg of protein

----------
system: Methylocystis parvus OBBP (NRRL B-11,198); test: n-alkanes to methyl ketones by resting cell suspensions (Table I); format: cell-based; conditions: cells grown on methane; 30° C.
Conversion Rates, n-alkane to corresponding methyl ketone for assorted compounds
Number in μmoles/hr/mg protein, nothing else.

Solved cases (3 shown):
{"columns": ["SMILES_ENTRY", "REPORTED_MEASUREMENT"],
 "data": [
  ["CCCCCC", 0.04],
  ["CCCC", 1.0],
  ["CCC", 1.8]
]}

Qu. Supply recorded Conversion Rates, n-alkane to corresponding methyl ketone for CCCCC here.
Ans. 0.51

----------
tested on: cell-free SADH system; assay: cofactor requirement of the cell-free SADH systems; format: biochemical; details: cell-free systems tested
EXPERIMENTAL_READOUT: effectiveness as cofactor for oxidation of 2-butanol / C3-C6 secondary alcohols

Solved cases (4 shown):
{"columns": ["COMPOUND", "REPORTED_MEASUREMENT"],
 "data": [
  ["N[C@@H](CCC(=O)N[C@@H](CS)C(=O)NCC(=O)O)C(=O)O [GSH, glutathione]", "not effective"],
  ["NC(=O)C1=CN([C@@H]2O[C@H](COP(=O)(O)OP(=O)(O)OC[C@H]3O[C@@H](n4cnc5c(N)ncnc54)[C@H](OP(=O)(O)O)[C@@H]3O)[C@@H](O)[C@H]2O)C=CC1 [NAD(P)H]", "not effective"],
  ["NC(=O)c1ccc[n+]([C@@H]2O[C@H](COP(=O)(O)OP(=O)(O)OC[C@H]3O[C@@H](n4cnc5c(N)ncnc54)[C@H](OP(=O)(O)O)[C@@H]3O)[C@@H](O)[C@H]2O)c1 [NADP, reference compound]", "not effective"],
  ["C[n+]1c2ccccc2nc2ccccc21 [phenazine methosulfate, reference compound]", "not effective"]
]}

Qu. Supply recorded effectiveness as cofactor for oxidation of 2-butanol / C3-C6 secondary alcohols for Cc1cc2nc3c(=O)[nH]c(=O)nc-3n(C[C@H](O)[C@H](O)[C@H](O)COP(=O)(O)OP(=O)(O)OC[C@H]3O[C@@H](n4cnc5c(N)ncnc54)[C@H](O)[C@@H]3O)c2cc1C [FAD, flavin adenine dinucleotide, reference compound] here.
Ans. not effective

Qu. Supply recorded effectiveness as cofactor for oxidation of 2-butanol / C3-C6 secondary alcohols for O=C1C(Cl)=CC(=Nc2ccc(O)cc2)C=C1Cl [dichlorophenol indophenol, 2,6-dichlorophenol indophenol, reference compound] here.
Ans. not effective
